measurement-target: RUNX1 WT (RUNT-containing) (Homo sapiens, UniProt Q01196 1-181)
Sequence (Q01196 1-181): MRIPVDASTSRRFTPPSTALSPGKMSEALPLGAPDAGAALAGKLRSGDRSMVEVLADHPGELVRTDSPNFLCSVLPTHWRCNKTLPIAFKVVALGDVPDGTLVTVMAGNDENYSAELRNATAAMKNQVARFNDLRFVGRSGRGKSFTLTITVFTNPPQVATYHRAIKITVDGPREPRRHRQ
assay-details: ITC; without CBFβ; ITC: 20 uM RUNX1 in cell, 100 uM DNA in syringe, 10 mM HEPES-NaOH pH 7.5, 180 mM NaCl, 0.005% Tween 20; temperature stated as 277 K (Methods) but 25 °C (Results)
measurement-parameters: protein: recombinant; tags: N-terminal His6; (21 bp)
assay-metric: pKd
Scale: pKd equals -log10([C]), with [C] in mol/L.

Query: Please look up its pKd: CSF-1R promoter 21 bp DNA (dsDNA) DNA 1: CAAACTCTGTGGTTGCCTTGC DNA 2: GCAAGGCAACCACAGAGTTTG
Response: 6.31
